- System: MALME-3M melanoma
- assay.overview: NCI tumour cell line growth inhibition, 48 h
Criterion: TGI meeting or surpassing 10 µM. Met: yes. Not met: no.

Determine whether this compound has TGI no lower than 10 µM: Cc1cc2nc3n(c2cc1C)C(c1c(F)cccc1F)SC3 (configuration not stated)
yes

For this compound, is measured TGI 10 µM or higher? Cc1cc(C)cc(Nc2nccc(-c3c(-c4ccc(F)cc4)ncn3C3CCNCC3)n2)c1
no

Does the compound CC(C)(C)c1ccc(C(=O)N/N=C/c2ccc(O)cc2O)cc1 have recorded TGI that is 10 µM or more?
no

Tell me whether TGI is at least 10 µM here: COc1ccc(N2CCN(CC(=O)N3CCN(c4nnc(-c5ccccc5)c(-c5ccccc5)n4)CC3)CC2)cc1
yes

Quick check, TGI >= 10 µM? O=C1C=CC2(O[C@@H](Cc3ccccc3)[C@H](Cc3ccccc3)O2)C(SC(=O)c2ccccc2)C1 (some centres not stated)
no

====

- Test system: M14 melanoma
- assay.overview: NCI tumour cell line growth inhibition, 48 h
Provide the recorded GI50 for the entries that follow.

* O=C(Cc1ccc(/C=C/C(=O)c2ncc[nH]2)cc1)Nc1ccc(Br)cc1 | 3110 nM
* O=C1Nc2ccccc2C12CC(c1ccccc1)=NN2 (stereo unspecified) | 4900 nM
* O=C1C=C(N2CC2)c2ccccc2C1=O | 1630 nM
* COC(=O)Nc1nc2c(OC)c(OC)c(OC)cc2[nH]1 | 8900 nM
* CC(=O)OCCC/C(=C\c1ccc2ccccc2c1)[N+](=O)[O-] | 1580 nM

Query compound follows.
What measured GI50 goes with O=C1C2C(C(=O)[N]1[Hg][c]1ccccc1)C1(Cl)C(Cl)=C(Cl)C2(Cl)C1(Cl)Cl (stereo unspecified) ?
1160 nM

====

Would you kindly list TGI for each of these molecules?
- Test system: T-47D breast
- assay.overview: NCI tumour cell line growth inhibition, 48 h

Some molecules with known TGI results, for comparison:
- Cc1cc(=O)c2c(O)c3c(O)cc(O)c4c5c(O)cc(O)c6c(O)c7c(=O)cc(C)c8c1c2c(c34)c(c65)c78: > 100 µM
- Cc1cc2nc3ccc(N=Nc4ccc(N(C)C)cc4)cc3n(-c3ccccc3)c-2cc1=N: 0.0706 µM
- COCC(=O)[C@]1(O)Cc2c(O)c3c(c(O)c2[C@@H](OC2CC(N)C(O)C(C)O2)C1)C(=O)c1c(OC)cccc1C3=O (some centres undefined): 0.737 µM
- COc1cc2c(cc1OCCCCCCNC(=O)c1cc3ccccc3[nH]1)N=CC1CCCN1C2=O (centres undefined): > 100 µM
- O=C1C[C@H](c2ccccc2)C2(C(=O)c3ccccc3C2=O)[C@@H](c2ccccc2)C1: > 100 µM
- COc1ccc2nc(-c3ccccc3)cc(Nc3ccc(/C(C)=N/O)cc3)c2c1: > 100 µM
- N#Cc1cc2cc3c4c(c2oc1=O)CCCN4CCC3: > 100 µM
- CC1=C[C@H]2c3c(c(O)c(O)c4oc5cc(O)cc(O)c5c(=O)c34)[C@H](c3cc(O)c(O)c4oc5cc(O)cc(O)c5c(=O)c34)[C@H]2C(C)(C)C1: 26 µM

Reported TGI for O=C1Nc2ccccc2C12CC(c1ccccc1)=NN2 (centres undefined) : what is it?
> 100 µM

meta.source: PubChem BioAssay (NCI)
